Values from patent US20250154115A1

- SYSTEM NAME: IP6K1 (Homo sapiens (Human))
- Sequence (Q92551 whole entry): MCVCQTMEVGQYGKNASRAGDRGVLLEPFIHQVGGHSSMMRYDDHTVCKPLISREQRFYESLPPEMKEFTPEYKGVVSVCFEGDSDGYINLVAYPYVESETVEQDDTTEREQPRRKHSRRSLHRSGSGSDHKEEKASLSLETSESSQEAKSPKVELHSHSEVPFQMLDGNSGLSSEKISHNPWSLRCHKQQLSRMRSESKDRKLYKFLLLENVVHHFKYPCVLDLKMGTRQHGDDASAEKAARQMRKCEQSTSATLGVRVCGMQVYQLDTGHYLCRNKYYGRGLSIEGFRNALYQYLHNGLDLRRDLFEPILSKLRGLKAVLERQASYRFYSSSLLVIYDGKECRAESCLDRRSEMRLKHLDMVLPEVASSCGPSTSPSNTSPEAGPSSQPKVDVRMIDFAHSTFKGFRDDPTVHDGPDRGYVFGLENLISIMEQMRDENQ
- TEST NAME: Enzyme-coupled assay of IP6K1 activity (Dipp1-coupled, malachite green Pi release)
- Type: biochemical
- STATED CONDITIONS: determined from enzyme-coupled assays
PROPERTY NAME: IC50

• O=c1[nH]c(-c2ccc3noc(-c4cccc(OC5CCN(C6COC6)CC5)c4)c3c2)no1 [Cmpd 134] = 100 to 1000 nM

[ask] Requested read-out: IC50. Entry: O=c1[nH]c(-c2ccc3noc(-c4cccc(OC5CCNCC5)c4)c3c2)no1 [Cmpd 129]
[reply] 10 to 100 nM

[ask] And O=c1[nH]c(-c2ccc3noc(-c4cccc(Oc5ncc(Cl)cc5Cl)c4)c3c2)no1 [Cmpd 127] ?
[reply] 10 to 100 nM
